- SYSTEM_TESTED: human growth hormone secretagogue receptor (hGHS-R1a) (Homo sapiens, UniProt Q92847)
- Construct: purchased PerkinElmer BioSignal #RBHGHSM, lot#1887; host or cells: HEK-293, stably transfected
- Sequence (Q92847 whole entry): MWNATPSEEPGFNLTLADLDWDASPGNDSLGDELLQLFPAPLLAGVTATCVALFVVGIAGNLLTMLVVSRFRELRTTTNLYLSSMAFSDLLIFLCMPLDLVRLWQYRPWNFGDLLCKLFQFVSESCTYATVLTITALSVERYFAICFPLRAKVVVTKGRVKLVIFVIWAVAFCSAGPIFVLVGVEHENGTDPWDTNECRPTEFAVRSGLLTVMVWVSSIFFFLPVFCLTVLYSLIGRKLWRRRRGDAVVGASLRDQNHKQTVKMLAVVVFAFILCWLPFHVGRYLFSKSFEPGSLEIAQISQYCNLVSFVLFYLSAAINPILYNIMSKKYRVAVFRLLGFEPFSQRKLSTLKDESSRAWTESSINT
- TEST_METHOD_NOTES: Competitive radioligand binding assay (ghrelin receptor), [125I]-ghrelin displacement
- MEASUREMENT_CONTEXT: binding activity at the human ghrelin receptor; [125I]-ghrelin displacement, hGHS-R1a/HEK-293 membranes; read-out: Ki
- Method: The competitive binding assay at the human growth hormone secretagogue receptor (hGHS-R1a) was carried out analogously to assays described in the literature. Multiscreen Harvest plates-GF/C (Millipore, #MAHFC1H60) • 4. […] Plates were sealed with TopSeal-A, vortexed gently and incubated at rt for 30 min. […] Results were expressed as counts per minute (cpm). Data were analyzed by GraphPad Prism (GraphPad Software, San Diego, Calif.) using a variable slope non-linear regression analysis. […]
pKi: −log10 of the molar value.
I'd appreciate it if you could supply pKi values for the items below.

Ask: Please look at this compound and report its pKi: CCC(C)C1NCCc2ccccc2C=CCCNC(=O)C(Cc2ccccc2)NC(=O)C(C)N(C)C1=O (stereo not drawn) [compound 188]
Result: < 6.00

Ask: Check the records and state pKi for CCC(C)C1NCc2ccccc2CCCCCNC(=O)C(Cc2ccccc2)NC(=O)C(C)N(C)C1=O (stereo not drawn) [compound 38]
Result: 7.00 to 8.00

Ask: For the compound CCCC1NCC2CCC(CNC(=O)C(Cc3ccccc3)NC(=O)CN(C)C1=O)O2 (stereo not drawn) [compound 78] , give its reported pKi.
Result: < 5.00

Ask: For the compound CCC(C)C1NCCOc2ccccc2CCCNC(=O)C(Cc2cccs2)NC(=O)C(C)N(C)C1=O (stereo not drawn) [compound 34] , give its reported pKi.
Result: 7.00 to 8.00

Ask: Give recorded pKi. CCCC1NC(=O)C2(CCCC2)NC(=O)C(CC(C)C)NCCOc2ccccc2C=CCNC1=O (stereo not drawn) [compound 48]
Result: < 5.00

Ask: Given CCC[C@@H]1NCCOc2ccccc2CCCNC(=O)[C@@H](Cc2ccccc2)NC(=O)CN(CC)C1=O [compound 5] , respond with its pKi.
Result: 5.00 to 7.00

Ask: Provide pKi value for the following compound: CCC(C)C1NCCOc2ccccc2CCCNC(=O)C(C(c2ccccc2)c2ccccc2)NC(=O)C(C)N(C)C1=O (stereo not drawn) [compound 29]
Result: 7.00 to 8.00

Ask: Please list pKi recorded for the compound CCCC1NCCOc2ccccc2C=CCNC(=O)C(Cc2ccccc2)NC(=O)CN(C)C1=O (stereo not drawn) [compound 11]
Result: 7.00 to 8.00

Ask: Report pKi for CCCC1NCCOc2ccccc2CCCNC(=O)C(Cc2ccccc2)NC(=O)C(CCC(=O)O)NC1=O (stereo not drawn) [compound 70]
Result: < 5.00

Ask: # return recorded pKi for input CCC(C)C1NCCOc2ccccc2CCCNC(=O)C(Cc2ccccc2)NC(=O)C(C(C)CC)N(C)C1=O (single isomer, unassigned) [150b]
Result: < 5.00

Ask: Tell me pKi reported for CC(C)CC1NCCOc2ccccc2C=CCNC(=O)C(Cc2cccc3ccccc23)NC(=O)C2(CCCC2)NC1=O (stereo not drawn) [compound 22]
Result: 7.00 to 8.00

Ask: Give the measured pKi for CCC(C)C1NCCOc2ccccc2CCCNC(=O)C(Cc2cccnc2)NC(=O)C(C)N(C)C1=O (stereo not drawn) [compound 170]
Result: 7.00 to 8.00

Ask: Please list pKi recorded for the compound CCC(C)C1NCCOc2ccccc2CCCNC(=O)C(Cc2ccc(-c3ccccc3)cc2)NC(=O)C(C)N(C)C1=O (stereo not drawn) [compound 28]
Result: 7.00 to 8.00

Ask: Return the recorded pKi value; entry: CC(C)CC1NCc2ccccc2Sc2ccccc2CNC(=O)C(Cc2ccccc2)NC(=O)C2(CCCC2)NC1=O (stereo not drawn) [compound 108]
Result: 5.00 to 6.00

Ask: // Input: CC(C)CC1NCCC#CCCNC(=O)C(Cc2ccccc2)NC(=O)C2(CCCC2)NC1=O (stereo not drawn) [compound 106] . Output its pKi only.
Result: < 5.00

====

- SYSTEM_TESTED: human ghrelin receptor (hGHS-R1a) (Homo sapiens)
- Sequence (Q92847 whole entry): as above
- TEST_METHOD_NOTES: cell-based
Task for the reader: assign each of the following molecules its reported EC50.

Ask: Consider the molecule CCC(C)C1NCCOc2cccnc2CCCNC(=O)C(Cc2ccccc2)NC(=O)C(C)N(C)C1=O (stereo not shown) [compound 177] . State its measured EC50.
Result: 1 to 100 nM

Ask: Hello, please tell me recorded EC50 for this one: CCC(C)C1NCCOc2ccccc2C2CC2CNC(=O)C(Cc2cccc(Cl)c2)NC(=O)C2(CCCC2)NC1=O (stereo not shown) [compound 388]
Result: 1 to 100 nM

Ask: Return EC50 for the following molecule: CC1COc2ccccc2CCCNC(=O)C(Cc2ccc(F)cc2)NC(=O)C(C)N(C)C(=O)C(C2CC2)N1 (stereo not shown) [compound 394]
Result: 100 to 1000 nM

Ask: Given the molecule CCC(C)C1NCc2ccccc2CCCCCNC(=O)C(Cc2ccccc2)NC(=O)C(C)N(C)C1=O (stereo not shown) [compound 38] , write its reported EC50.
Result: 100 to 1000 nM

Ask: Provide one value: measured EC50 of CCC(C)C1NCCOc2ccc(C(=O)O)cc2CCCNC(=O)C(Cc2ccccc2)NC(=O)C(C)N(C)C1=O (stereo not shown) [compound 197]
Result: > 1000 nM

Ask: Specify EC50 for CCC(C)C1NCCOc2ccccc2C=CCNC(=O)C(Cc2ccccc2)NC(=O)C(C)N(C)C1=O (stereo not shown) [compound 40] and stop.
Result: 1 to 100 nM

Ask: Fill in EC50 for record CC1C(=O)NC(Cc2ccc(F)cc2)C(=O)NCCCc2cc(NS(C)(=O)=O)ccc2OCCNC(C2CC2)C(=O)N1C (stereo not shown) [compound 374]
Result: 1 to 100 nM

====

- SYSTEM_TESTED: human growth hormone secretagogue receptor (hGHS-R1a) (Homo sapiens)
- Construct: purchased PerkinElmer BioSignal #RBHGHSM, lot#1887; host or cells: HEK-293, stably transfected
- TEST_METHOD_NOTES: Competitive radioligand binding assay (ghrelin receptor), [125I]-ghrelin displacement
- MEASUREMENT_CONTEXT: Table 3B; binding at human ghrelin receptor, [125I]-ghrelin displacement; read-out: Ki
QUANTITY: Ki

Ask: Tell me Ki reported for CCC(C)C1NCCOc2ccccc2C(C)(C)CCNC(=O)C(Cc2cccc(Cl)c2)NC(=O)C2(CCCC2)NC1=O (stereo not drawn)
Result: 100 to 10000 nM

Ask: Identify measured Ki corresponding to CC1CCNC(=O)C(Cc2ccc(F)cc2)NC(=O)C(C)N(C)C(=O)C(C2CC2)NCCOc2ccccc21 (stereo not drawn)
Result: 100 to 10000 nM

Ask: Input CCC(C)C1NCCOc2ccccc2C2CC2CNC(=O)C(Cc2cccc(Cl)c2)NC(=O)C2(CCCC2)NC1=O (stereo not drawn) [compound 387] , output reported Ki.
Result: 100 to 10000 nM

Ask: Respond only with Ki recorded for CC1COc2ccccc2CCCNC(=O)C(Cc2ccc(F)cc2)NC(=O)C(C)N(C)C(=O)C(C2CC2)N1 (stereo not drawn)
Result: 0.1 to 10 nM

Ask: Supply recorded Ki for COc1ccc(CC2NC(=O)C(C)N(C)C(=O)C(C3CC3)NCCOc3ccccc3CCCNC2=O)cc1OC (stereo not drawn) here.
Result: 100 to 10000 nM

Ask: Give the reported Ki for this compound. N#Cc1ccccc1CC1NCCOc2ccccc2C=CCNC(=O)C(Cc2cccc(Cl)c2)NC(=O)C2(CCCC2)NC1=O (stereo not drawn)
Result: 100 to 10000 nM

Ask: # return recorded Ki for entry CCC(C)C1NCCOc2ccccc2C(C)CCNC(=O)C(Cc2cccc(Cl)c2)NC(=O)C2(CCCC2)NC1=O (stereo not drawn)
Result: 100 to 10000 nM

Ask: State its Ki: CCC(C)C1NCCOc2ccccc2C=CCNC(=O)C(Cc2ccsc2)NC(=O)C2(CCCC2)NC1=O (stereo not drawn)
Result: 100 to 10000 nM

Ask: Entry CCC(C)C1NCCOc2ccccc2C=CCNC(=O)C(Cc2cccc(Cl)c2)NC(=O)C2(CCCC2)NC1=O (stereo not drawn) needs its Ki filled in; supply it.
Result: 100 to 10000 nM

Ask: Supply measured Ki of CC1C(=O)NC(Cc2ccc(F)cc2)C(=O)NCCCc2cc(C(F)(F)F)ccc2OCCNC(C2CC2)C(=O)N1C (stereo not drawn) in your reply.
Result: 100 to 10000 nM

Ask: Supply measured Ki of CCC(C)C1NCCOCCCCCNC(=O)C(Cc2cccc(Cl)c2)NC(=O)C2(CCCC2)NC1=O (stereo not drawn) in your reply.
Result: 100 to 10000 nM

Ask: Respond only with Ki recorded for CC1C(=O)NC(Cc2ccc(F)cc2)C(=O)NCCC(C)(C)c2ccccc2OCCNC(C2CC2)C(=O)N1C (stereo not drawn)
Result: 100 to 10000 nM

Ask: Return Ki (reported value) for this compound: COC(C)C1NCCOc2ccccc2CCCNC(=O)C(Cc2ccc(F)cc2)NC(=O)C(C)N(C)C1=O (stereo not drawn)
Result: < 100 nM

Ask: // Input: CCC(C)C1NCCOc2ccccc2C2CC2CNC(=O)C(Cc2cccc(Cl)c2)NC(=O)C2(CCCC2)NC1=O (stereo not drawn) [compound 388] . Output its Ki only.
Result: 0.1 to 10 nM

Ask: Identify measured Ki associated with CC1C(=O)NC(Cc2c[nH]c3ccccc23)C(=O)NCCCc2ccccc2OCCNC(C2CC2)C(=O)N1C (stereo not drawn)
Result: < 100 nM
